Test system: isolated rat liver mitochondria
test_description: Uncoupling activity: increase in basal (state 4) oxygen consumption by oxygraphy
Format: biochemical
assay_conditions: Table 1A; 100 μM; relative to ADP-stimulated respiration = 100%
quantity_name: Measured Uncoupling (% uncoupling ± SEM @ 100 μM) (% uncoupling)

[[record]]
molecule = "O=C(/C=C/c1ccc(O)c(O)c1)c1ccc(O)cc1O [butein]"
comparison_sign = "="
recorded_measurement = 71

[[record]]
molecule = "O=c1c(-c2ccc(O)cc2)coc2cc(O)cc(O)c12 [genistein]"
comparison_sign = "="
recorded_measurement = 74

[[record]]
molecule = "Cc1cc(O)c2c(c1)C(=O)c1cc(O)cc(O)c1C2=O [frangulic acid]"
comparison_sign = "="
recorded_measurement = 78

[[record]]
molecule = "COc1ccc(-c2coc3cc(O)cc(O)c3c2=O)cc1 [biochanin A]"
comparison_sign = ">"
recorded_measurement = 100

[[record]]
molecule = "COc1cc(/C=C/C(=O)c2ccc(O)cc2O)ccc1O [homobutein]"
comparison_sign = "="
recorded_measurement = 56

[[record]]
molecule = "O=C(/C=C/c1ccc(O)cc1)c1ccc(O)cc1O [isoliquiritigenin]"
comparison_sign = ">"
recorded_measurement = 100

[[record]]
molecule = "O=C(/C=C/c1ccccc1)c1ccc(O)cc1 [4′-hydroxychalcone]"
comparison_sign = "="
recorded_measurement = 74

[[record]]
molecule = "O=c1c(O)c(-c2ccccc2)oc2cc(O)cc(O)c12 [galangin]"
comparison_sign = "="
recorded_measurement = 95


src = patent US20140135359A1
